- System: MDA-MB-231
- assay: Cytotoxicity against human MDA-MB-231 cells assessed as reduction in cell viability incubated for 96 hrs by MTT assay
- Format: functional, cell-based
- experimentalSetup: MDA-MB-231, 96 h
Attribute: IC50
Note: unit nM is implicit; provide only the numeric part.

Here are 3 compounds together with their reported answers.
{"compound": "COc1c(O)cc(O)c2c1C(=O)c1cc(C)ncc1C2=O", "experimentalValue": 730}
{"compound": "COc1cccc2c1C(=O)c1c(O)c3c(c(O)c1C2=O)C[C@@](O)(C(=O)CO)C[C@@H]3O[C@H]1C[C@H](N)[C@H](O)[C@H](C)O1 [DOXORUBICIN]", "experimentalValue": 70}
{"compound": "COc1cc(O)c2c(c1)C(=O)C1=C(COC(C)(O)C1)C2=O (centres undefined)", "experimentalValue": 30700}

// moving on: another record for IC50
Give the measured IC50 of COc1cc(O)cc2c1C(=O)c1cnc(C)cc1C2=O .
1510

---

Attribute: pIC50
- Tested on: HeLa
- assay: Cytotoxicity against human HeLa cells assessed as reduction in cell viability incubated for 96 hrs by MTT assay
- Format: functional, cell-based
pIC50 here: minus log base 10 of the concentration, concentration in moles per litre.

{"compound": "COc1c(O)cc(O)c2c1C(=O)c1cc(C)ncc1C2=O", "pIC50": 6.15}
{"compound": "COc1cc(O)c2c(c1)C(=O)C1=C(COC(C)(O)C1)C2=O (centres undefined)", "pIC50": 4.99}
{"compound": "COc1cc(O)cc2c1C(=O)c1cnc(C)cc1C2=O", "pIC50": 6.02}

Give the measured pIC50 of COc1cccc2c1C(=O)c1c(O)c3c(c(O)c1C2=O)C[C@@](O)(C(=O)CO)C[C@@H]3O[C@H]1C[C@H](N)[C@H](O)[C@H](C)O1 .
7.30

---

- Test system: WI-38
- assay: Cytotoxicity against human WI38 cells assessed as reduction in cell viability incubated for 96 hrs by MTT assay
- Format: cell-based
- experimentalSetup: WI-38, 96 h
observationType: pIC50
pIC50 here: minus log base 10 of the concentration, concentration in moles per litre.

{"compound": "COc1cc(O)c2c(c1)C(=O)C1=C(COC(C)(O)C1)C2=O (centres undefined)", "pIC50": 4.26}

Give the measured pIC50 of COc1cc(O)cc2c1C(=O)c1cnc(C)cc1C2=O .
5.23

Here is the next compound: COc1c(O)cc(O)c2c1C(=O)c1cc(C)ncc1C2=O
5.19

Here is the next compound: COc1cccc2c1C(=O)c1c(O)c3c(c(O)c1C2=O)C[C@@](O)(C(=O)CO)C[C@@H]3O[C@H]1C[C@H](N)[C@H](O)[C@H](C)O1
6.46

---

Attribute: IC50
- System: NCI-H1975
- assay: Cytotoxicity against human NCI-H1975 cells assessed as reduction in cell viability incubated for 96 hrs by MTT assay
- Assay type: functional, cell-based
- experimentalSetup: NCI-H1975, 96 h
Note: unit nM is implicit; provide only the numeric part.

Here are 3 molecules together with their reported answers.
{"molecule": "COc1cc(O)cc2c1C(=O)c1cnc(C)cc1C2=O", "unitString": "nM", "experimentalValue": 610}
{"molecule": "COc1cccc2c1C(=O)c1c(O)c3c(c(O)c1C2=O)C[C@@](O)(C(=O)CO)C[C@@H]3O[C@H]1C[C@H](N)[C@H](O)[C@H](C)O1", "unitString": "nM", "experimentalValue": 30}
{"molecule": "COc1c(O)cc(O)c2c1C(=O)c1cc(C)ncc1C2=O", "unitString": "nM", "experimentalValue": 340}

// moving on: another record for IC50
Give the measured IC50 of COc1cc(O)c2c(c1)C(=O)C1=C(COC(C)(O)C1)C2=O (centres undefined) .
27700
